Listing of recorded %-inhibition of SRPK1 by entry.
Target: panel of more than 300 wild-type and mutant kinases (313 kinase panel) (Homo sapiens)
Assay: Kinase profiling in a biochemical assay panel (mobility shift assays and ELISA), %-inhibition at 1 μM; selectivity entropy
Settings: kinase SRPK1; 1 μM
Report only the number, with the unit % understood.

Known results for molecules:
CCCS(=O)(=O)Nc1ccc(F)c(C(=O)c2c[nH]c3ncc(-c4ccc(Cl)cc4)cc23)c1F [vemurafenib] :: 2
CC(=O)Nc1cccc(-n2c(=O)n(C3CC3)c(=O)c3c(Nc4ccc(I)cc4F)n(C)c(=O)c(C)c32)c1 [trametinib] :: -0.0691
CNC(=O)c1cc(Oc2ccc(NC(=O)Nc3ccc(Cl)c(C(F)(F)F)c3)c(F)c2)ccn1 [regorafenib] :: 27
CCN(CC)CCNC(=O)c1c(C)[nH]c(/C=C2\C(=O)Nc3ccc(F)cc32)c1C [sunitinib] :: 5
COc1cc2nccc(Oc3ccc(NC(=O)C4(C(=O)Nc5ccc(F)cc5)CC4)cc3)c2cc1OC [cabozantinib] :: 37
CO[C@H]1C[C@@H]2CC[C@@H](C)[C@@](O)(O2)C(=O)C(=O)N2CCCC[C@H]2C(=O)O[C@H]([C@H](C)C[C@@H]2CC[C@@H](OC(=O)C(C)(CO)CO)[C@H](OC)C2)CC(=O)[C@H](C)/C=C(\C)[C@@H](O)[C@@H](OC)C(=O)[C@H](C)C[C@H](C)/C=C/C=C/C=C/1C [temsirolimus] :: 6

Query block: Respond only with %-inhibition of SRPK1 recorded for CS(=O)(=O)CCNCc1ccc(-c2ccc3ncnc(Nc4ccc(OCc5cccc(F)c5)c(Cl)c4)c3c2)o1 [lapatinib]
Result block: 0.333

Query block: Respond only with %-inhibition of SRPK1 recorded for CO[C@H]1C[C@@H]2CC[C@@H](C)[C@@](O)(O2)C(=O)C(=O)N2CCCC[C@H]2C(=O)O[C@H]([C@H](C)C[C@@H]2CC[C@@H](OCCO)[C@H](OC)C2)CC(=O)[C@H](C)/C=C(\C)[C@@H](O)[C@@H](OC)C(=O)[C@H](C)C[C@H](C)/C=C/C=C/C=C/1C [everolimus]
Result block: 1.69

Query block: Respond only with %-inhibition of SRPK1 recorded for O=S(=O)(c1cccc2cnccc12)N1CCCNCC1 [fasudil]
Result block: -5.38

Query block: Respond only with %-inhibition of SRPK1 recorded for Cc1cn(-c2cc(NC(=O)c3ccc(C)c(Nc4nccc(-c5cccnc5)n4)c3)cc(C(F)(F)F)c2)cn1 [nilotinib]
Result block: 3

Query block: Respond only with %-inhibition of SRPK1 recorded for Cc1ccc(Nc2nccc(N(C)c3ccc4c(C)n(C)nc4c3)n2)cc1S(N)(=O)=O [pazopanib]
Result block: 8

Query block: Respond only with %-inhibition of SRPK1 recorded for COc1cc2c(Nc3ccc(Br)cc3F)ncnc2cc1OCC1CCN(C)CC1 [vandetanib]
Result block: 3

Query block: Respond only with %-inhibition of SRPK1 recorded for Cc1nc(Nc2ncc(C(=O)Nc3c(C)cccc3Cl)s2)cc(N2CCN(CCO)CC2)n1 [dasatinib]
Result block: -2.17

Query block: Respond only with %-inhibition of SRPK1 recorded for C[C@@H](Oc1cc(-c2cnn(C3CCNCC3)c2)cnc1N)c1c(Cl)ccc(F)c1Cl [crizotinib]
Result block: 4.55

Query block: Respond only with %-inhibition of SRPK1 recorded for N#CC[C@H](C1CCCC1)n1cc(-c2ncnc3[nH]ccc23)cn1 [ruxolitinib]
Result block: 2.4

----------
Biological target: panel of more than 300 wild-type and mutant kinases (313 kinase panel) (Homo sapiens, UniProt P36894)
Experiment: Kinase profiling in a biochemical assay panel (mobility shift assays and ELISA), %-inhibition at 1 μM; selectivity entropy
Conditions: kinase BMPR1A; 1 μM compound
readout.type: %-inhibition, BMPR1A (%)
Report only the number, with the unit % understood.

Known results for compounds:
O=S(=O)(c1cccc2cnccc12)N1CCCNCC1 [fasudil] :: -10
CC(=O)Nc1cccc(-n2c(=O)n(C3CC3)c(=O)c3c(Nc4ccc(I)cc4F)n(C)c(=O)c(C)c32)c1 [trametinib] :: 2.14
CC(C)(C)c1nc(-c2cccc(NS(=O)(=O)c3c(F)cccc3F)c2F)c(-c2ccnc(N)n2)s1 [dabrafenib] :: 17

// moving on: another record for %-inhibition, BMPR1A
Query block: Respond only with %-inhibition, BMPR1A recorded for Cc1ccc(Nc2nccc(N(C)c3ccc4c(C)n(C)nc4c3)n2)cc1S(N)(=O)=O [pazopanib]
Result block: -1.7

----------
Biological target: panel of more than 300 wild-type and mutant kinases (313 kinase panel) (Homo sapiens, UniProt Q13976)
Assay: Kinase profiling in a biochemical assay panel (mobility shift assays and ELISA), %-inhibition at 1 μM; selectivity entropy
Conditions: kinase PGK; 1 μM
readout.type: %-inhibition of PGK (%)
Report only the number, with the unit % understood.

Known results for compounds:
CO[C@H]1C[C@@H]2CC[C@@H](C)[C@@](O)(O2)C(=O)C(=O)N2CCCC[C@H]2C(=O)O[C@H]([C@H](C)C[C@@H]2CC[C@@H](OCCO)[C@H](OC)C2)CC(=O)[C@H](C)/C=C(\C)[C@@H](O)[C@@H](OC)C(=O)[C@H](C)C[C@H](C)/C=C/C=C/C=C/1C :: -6.44
COc1cc2nccc(Oc3ccc(NC(=O)C4(C(=O)Nc5ccc(F)cc5)CC4)cc3)c2cc1OC [cabozantinib] :: -3

// moving on: another record for %-inhibition of PGK
Query block: Respond only with %-inhibition of PGK recorded for "COc1cc2c(Nc3ccc(Br)cc3F)ncnc2cc1OCC1CCN(C)CC1"
Result block: -3.59

----------
Molecular target: panel of more than 300 wild-type and mutant kinases (313 kinase panel) (Homo sapiens, UniProt Q15303)
Sequence (Q15303 26-1308, change not shown): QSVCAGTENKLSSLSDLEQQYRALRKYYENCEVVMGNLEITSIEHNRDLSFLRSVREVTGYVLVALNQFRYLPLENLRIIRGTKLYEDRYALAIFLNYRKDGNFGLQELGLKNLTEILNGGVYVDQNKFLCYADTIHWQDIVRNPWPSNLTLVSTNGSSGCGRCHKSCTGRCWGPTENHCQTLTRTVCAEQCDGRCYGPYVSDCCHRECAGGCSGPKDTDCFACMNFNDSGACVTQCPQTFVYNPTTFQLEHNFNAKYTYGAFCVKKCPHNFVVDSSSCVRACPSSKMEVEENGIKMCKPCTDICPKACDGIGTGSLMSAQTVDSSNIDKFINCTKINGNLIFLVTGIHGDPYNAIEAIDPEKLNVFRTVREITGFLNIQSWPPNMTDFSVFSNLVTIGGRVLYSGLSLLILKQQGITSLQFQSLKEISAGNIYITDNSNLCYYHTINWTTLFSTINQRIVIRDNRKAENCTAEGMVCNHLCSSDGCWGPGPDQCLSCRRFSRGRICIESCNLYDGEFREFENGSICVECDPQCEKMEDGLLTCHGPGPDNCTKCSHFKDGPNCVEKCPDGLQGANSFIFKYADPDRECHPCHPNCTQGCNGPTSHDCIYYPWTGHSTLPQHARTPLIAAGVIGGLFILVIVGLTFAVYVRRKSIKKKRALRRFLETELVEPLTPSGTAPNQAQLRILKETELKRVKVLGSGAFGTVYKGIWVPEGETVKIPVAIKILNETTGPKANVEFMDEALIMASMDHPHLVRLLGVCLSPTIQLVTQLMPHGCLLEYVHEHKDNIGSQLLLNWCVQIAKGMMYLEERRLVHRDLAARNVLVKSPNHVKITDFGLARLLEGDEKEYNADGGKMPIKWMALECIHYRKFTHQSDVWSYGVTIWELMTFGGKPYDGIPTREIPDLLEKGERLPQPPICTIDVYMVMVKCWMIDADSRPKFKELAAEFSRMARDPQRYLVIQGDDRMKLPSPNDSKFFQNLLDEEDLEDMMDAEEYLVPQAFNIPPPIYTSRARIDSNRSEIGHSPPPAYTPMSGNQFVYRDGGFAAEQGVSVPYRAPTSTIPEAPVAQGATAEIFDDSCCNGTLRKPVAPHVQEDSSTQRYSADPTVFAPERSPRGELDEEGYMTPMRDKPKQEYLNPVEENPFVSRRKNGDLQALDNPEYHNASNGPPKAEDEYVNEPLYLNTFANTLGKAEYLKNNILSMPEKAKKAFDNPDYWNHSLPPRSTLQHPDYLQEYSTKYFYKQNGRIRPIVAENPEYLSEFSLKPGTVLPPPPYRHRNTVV
Assay: Kinase profiling in a biochemical assay panel (mobility shift assays and ELISA), %-inhibition at 1 μM; selectivity entropy
Conditions: 1 µM
readout.type: %-inhibition of HER4 (%)
Report only the number, with the unit % understood.

Known results for compounds:
N#CC[C@H](C1CCCC1)n1cc(-c2ncnc3[nH]ccc23)cn1 [ruxolitinib] :: -1.9
Cc1cn(-c2cc(NC(=O)c3ccc(C)c(Nc4nccc(-c5cccnc5)n4)c3)cc(C(F)(F)F)c2)cn1 [nilotinib] :: 73
CS(=O)(=O)CCNCc1ccc(-c2ccc3ncnc(Nc4ccc(OCc5cccc(F)c5)c(Cl)c4)c3c2)o1 [lapatinib] :: 102

// moving on: another record for %-inhibition of HER4
Query block: Respond only with %-inhibition of HER4 recorded for C#Cc1cccc(Nc2ncnc3cc(OCCOC)c(OCCOC)cc23)c1 [erlotinib]
Result block: 97

----------
Target: panel of more than 300 wild-type and mutant kinases (313 kinase panel) (Homo sapiens, UniProt P07949, M918T)
Sequence (P07949 29-1114 M918T): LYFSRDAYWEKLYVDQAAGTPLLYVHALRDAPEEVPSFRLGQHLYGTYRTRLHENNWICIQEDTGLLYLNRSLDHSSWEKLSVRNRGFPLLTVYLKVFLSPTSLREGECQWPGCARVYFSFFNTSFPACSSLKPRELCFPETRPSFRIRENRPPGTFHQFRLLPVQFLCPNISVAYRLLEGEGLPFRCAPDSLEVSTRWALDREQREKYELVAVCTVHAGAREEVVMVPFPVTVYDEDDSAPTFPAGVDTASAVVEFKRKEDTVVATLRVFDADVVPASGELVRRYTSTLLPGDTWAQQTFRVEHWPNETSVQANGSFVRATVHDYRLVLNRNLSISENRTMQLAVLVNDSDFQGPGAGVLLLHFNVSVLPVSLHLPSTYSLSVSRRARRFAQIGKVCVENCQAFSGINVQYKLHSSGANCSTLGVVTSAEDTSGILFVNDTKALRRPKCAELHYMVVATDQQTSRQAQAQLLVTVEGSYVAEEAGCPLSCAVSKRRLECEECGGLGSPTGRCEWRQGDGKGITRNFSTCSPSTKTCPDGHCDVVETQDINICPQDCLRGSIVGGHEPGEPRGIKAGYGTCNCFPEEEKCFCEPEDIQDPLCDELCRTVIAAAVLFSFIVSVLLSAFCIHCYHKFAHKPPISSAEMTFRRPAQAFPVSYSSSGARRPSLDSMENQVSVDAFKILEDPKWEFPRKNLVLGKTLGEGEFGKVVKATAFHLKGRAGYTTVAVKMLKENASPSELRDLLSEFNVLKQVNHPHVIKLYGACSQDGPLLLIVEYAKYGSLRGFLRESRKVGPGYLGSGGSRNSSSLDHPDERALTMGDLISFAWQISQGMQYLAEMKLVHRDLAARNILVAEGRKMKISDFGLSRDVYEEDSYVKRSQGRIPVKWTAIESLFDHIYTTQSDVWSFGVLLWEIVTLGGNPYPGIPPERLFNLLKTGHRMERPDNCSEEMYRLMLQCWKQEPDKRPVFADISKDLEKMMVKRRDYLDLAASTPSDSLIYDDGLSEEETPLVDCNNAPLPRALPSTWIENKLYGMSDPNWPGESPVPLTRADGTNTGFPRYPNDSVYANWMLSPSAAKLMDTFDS
Assay: Kinase profiling in a biochemical assay panel (mobility shift assays and ELISA), %-inhibition at 1 μM; selectivity entropy
Settings: kinase RET(M918T); 1 μM
Tag: 1 if measured %-inhibition of RET(M918T) is not below 40%, -1 if it is.

A selection of reference data follows.
CO[C@H]1C[C@@H]2CC[C@@H](C)[C@@](O)(O2)C(=O)C(=O)N2CCCC[C@H]2C(=O)O[C@H]([C@H](C)C[C@@H]2CC[C@@H](OC(=O)C(C)(CO)CO)[C@H](OC)C2)CC(=O)[C@H](C)/C=C(\C)[C@@H](O)[C@@H](OC)C(=O)[C@H](C)C[C@H](C)/C=C/C=C/C=C/1C :: -1
COc1cc(Nc2c(C#N)cnc3cc(OCCCN4CCN(C)CC4)c(OC)cc23)c(Cl)cc1Cl :: 1
CC(=O)Nc1cccc(-n2c(=O)n(C3CC3)c(=O)c3c(Nc4ccc(I)cc4F)n(C)c(=O)c(C)c32)c1 :: -1
Cc1ccc(C(=O)Nc2ccc(CN3CCN(C)CC3)c(C(F)(F)F)c2)cc1C#Cc1cnc2cccnn12 :: 1

Query block: Exam item: decide whether the reported %-inhibition of RET(M918T) for "Cc1ccc(Nc2nccc(N(C)c3ccc4c(C)n(C)nc4c3)n2)cc1S(N)(=O)=O" is at least 40%.
Result block: 1

Query block: Exam item: decide whether the reported %-inhibition of RET(M918T) for "CO[C@H]1C[C@@H]2CC[C@@H](C)[C@@](O)(O2)C(=O)C(=O)N2CCCC[C@H]2C(=O)O[C@H]([C@H](C)C[C@@H]2CC[C@@H](OCCO)[C@H](OC)C2)CC(=O)[C@H](C)/C=C(\C)[C@@H](O)[C@@H](OC)C(=O)[C@H](C)C[C@H](C)/C=C/C=C/C=C/1C" is at least 40%.
Result block: -1

Query block: Exam item: decide whether the reported %-inhibition of RET(M918T) for "CCCS(=O)(=O)Nc1ccc(F)c(C(=O)c2c[nH]c3ncc(-c4ccc(Cl)cc4)cc23)c1F" is at least 40%.
Result block: -1

Query block: Exam item: decide whether the reported %-inhibition of RET(M918T) for "CC(C)(C)c1nc(-c2cccc(NS(=O)(=O)c3c(F)cccc3F)c2F)c(-c2ccnc(N)n2)s1" is at least 40%.
Result block: -1

Hello, the source for this data is paper PMC3961306, in case you need it.
